Reported hERG current change (%, negative = inhibition) at 10uM is given for each of the following compounds.
# assayedSystem: human ether-à-go-go-related gene (hERG) potassium channel (human);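 also: peak tail current of the secondary pulse compared with the same well before compound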
# Sequence (Q12809 whole entry, looked up): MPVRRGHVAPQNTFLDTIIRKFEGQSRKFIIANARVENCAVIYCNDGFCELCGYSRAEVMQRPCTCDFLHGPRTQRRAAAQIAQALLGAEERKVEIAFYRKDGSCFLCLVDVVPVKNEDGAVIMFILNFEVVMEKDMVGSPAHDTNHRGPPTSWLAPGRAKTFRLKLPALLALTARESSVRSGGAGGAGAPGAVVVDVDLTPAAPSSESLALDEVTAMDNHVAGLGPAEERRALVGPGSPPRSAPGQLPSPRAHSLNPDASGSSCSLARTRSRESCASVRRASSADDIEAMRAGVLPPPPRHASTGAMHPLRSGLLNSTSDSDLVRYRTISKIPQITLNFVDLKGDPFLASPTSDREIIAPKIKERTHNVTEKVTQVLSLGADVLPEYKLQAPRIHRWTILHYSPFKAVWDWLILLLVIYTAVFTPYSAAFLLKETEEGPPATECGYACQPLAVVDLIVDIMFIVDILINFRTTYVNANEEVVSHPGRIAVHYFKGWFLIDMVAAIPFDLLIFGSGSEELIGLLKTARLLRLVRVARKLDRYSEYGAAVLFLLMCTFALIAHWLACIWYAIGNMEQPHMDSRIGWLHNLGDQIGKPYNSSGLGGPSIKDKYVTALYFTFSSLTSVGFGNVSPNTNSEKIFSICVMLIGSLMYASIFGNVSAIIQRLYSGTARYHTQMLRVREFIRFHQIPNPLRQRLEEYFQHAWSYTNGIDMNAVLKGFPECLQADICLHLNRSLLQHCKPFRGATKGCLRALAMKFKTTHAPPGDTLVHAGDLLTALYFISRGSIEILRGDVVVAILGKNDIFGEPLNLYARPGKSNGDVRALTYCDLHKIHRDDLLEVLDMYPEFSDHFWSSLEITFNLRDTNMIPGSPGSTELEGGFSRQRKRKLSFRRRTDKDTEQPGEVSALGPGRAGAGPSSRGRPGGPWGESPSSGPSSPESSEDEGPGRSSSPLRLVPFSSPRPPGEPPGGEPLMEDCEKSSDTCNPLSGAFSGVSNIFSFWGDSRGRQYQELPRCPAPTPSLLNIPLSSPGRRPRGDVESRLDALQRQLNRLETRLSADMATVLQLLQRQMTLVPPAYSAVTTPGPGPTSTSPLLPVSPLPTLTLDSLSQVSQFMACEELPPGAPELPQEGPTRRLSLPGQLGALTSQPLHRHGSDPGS
# testDescription: primary screen, population patch clamp on CHO cells stably expressing hERG; higher = less effect of the substance
About 14,000 (4.5%) of roughly 310,000 compounds showed an effect of 50% or more. The effect is printed as a negative number. Only a selection was taken, and strong results are over-represented in it overall.
# output: bare number, implied unit %

- C#CCOCCOCCOCCNc1nc(N2CCN(C(=O)[C@H](Cc3ccc(O)cc3)n3cc([C@@H](N)C(C)CC)nn3)CC2)nc(N2CCN(C(=O)[C@H](CCCCN)n3cc([C@@H](N)CC(C)C)nn3)CC2)n1.Cl (stereo partly drawn): 6.05

Task: Consider the compound shown here: `C/C(=N\NC(=O)c1ccc(Cl)c(Cl)c1)c1cccc(NC(=O)C(C)C)c1` What is its recorded hERG current change (%, negative = inhibition) at 10uM?
Result: 1.91

These entries and their values trace back to paper PMC4336329.
